molecular target: Brd4 (S) (Homo sapiens); construct: endogenous in cells; host or cells: HEK293, HeLa; assay: Concentration-dependent BET degradation, immunoblot, HeLa cells; format: cell-based; details: 6 h treatment, 1 nM-10 μM, read-out: Dmax (%) maximum degradation observed
As shown below, each of these compounds has a reported Dmax value.

Below, each entry is followed by its recorded Dmax result.
CCCC(NC(=O)/C(C#N)=C/c1cccc(Br)n1)c1ccc(OCC=NOCC(=O)NCCOCCOCCOCCNC(=O)c2ccc3c(c2)[C@H](Nc2ccc(Cl)cc2)C[C@H](C)N3C(C)=O)cc1 (stereo partly drawn) [Example 05IB2] :: ≥ 71%
CCCC(NC(=O)C(C#N)Cc1cccc(Br)n1)c1ccc(OCCOCCOCCOCCOCCOCCOCCNC(=O)c2ccc(-c3ccc4c(c3)[C@H](Nc3ccc(Cl)cc3)C[C@H](C)N4C(C)=O)cc2)cc1 (stereo partly drawn) [Example 05IB12] :: ≤ 25%

Now for the compound whose Dmax we want.
What Dmax value was documented for this compound, CCCC(NC(=O)/C(C#N)=C/c1cccc(Br)n1)c1ccc(OCC=NOCC(=O)NCCOCCOCCOCCOCCOCCNC(=O)c2ccc3c(c2)[C@H](Nc2ccc(Cl)cc2)C[C@H](C)N3C(C)=O)cc1 (stereo partly drawn) [Example 05IB3] ?
≥ 71%
